system: Fibroblast; experiment: Multiplex assay against human fibroblast; format: toxicity, cell-based; details: 48 h, 10 µM, compound concentration 10 uM, replicate 1
parameter: Population Apoptotic (%)
Field: numeric (%). Do not append units.

Answered cases to consult:
molecule	Population Apoptotic (%)
COc1ccc2[nH]c(I)c(CCNC(C)=O)c2c1	60
CN1CCC(C(=O)c2cccc(NC(=O)c3c(F)cc(F)cc3F)n2)CC1	71
COc1cc(OC2CCN(C(C)=O)CC2)ccc1C(=O)N1CCC(N2C(=O)OCc3ccccc32)CC1	57
C[C@@H]1CC(=O)Nc2cccc(-c3ccc4c(c3)c(-c3cnn(C)c3)nn4C)c2N1	92
Cc1cc(-c2ccc3c(c2)CC[C@H]3N2CC3(CCN(C(=O)Cc4cn5cc(C)sc5n4)CC3)C2)ncn1	63
Cc1nn(C)c2nc(NNC(=O)Nc3cc(Cl)nc(Cl)c3)cc(C(C)C)c12	93
Cc1cc(=O)n(C)c2cc(N3C(=O)CC[C@H](NS(=O)(=O)CC(C)C)[C@H]3c3ccc(Cl)cc3)ccc12	61
CC(F)(F)CN1CCOc2c(nn(-c3ccccc3Cl)c2-c2ccc(Cl)cc2)C1=O	78
COc1cc(Nc2ncc3c(n2)-c2ccc(Cl)cc2C(c2c(F)cccc2OC)=NC3)ccc1C(=O)O	84
CCCCC[C@H](O)/C=C/[C@H]1[C@H](O)CC(=O)[C@@H]1CCCCCCC(=O)O	62

Request: Given the entry COC(c1ccccc1)(c1ccccc1)[C@H](Oc1nc(C)cc(C)n1)C(=O)O , what Population Apoptotic (%) was observed with Fibroblast?
Response: 61

Request: # query: Population Apoptotic (%) | item CN(C)C/C=C/C(=O)Nc1ccc(C(=O)N2CCCC(Nc3ncc(Cl)c(-c4c[nH]c5ccccc45)n3)C2)cc1 (configuration not stated) | system: Fibroblast
Response: 77

Request: Query Population Apoptotic (%) on Fibroblast for COCCn1c(C)c(C)s/c1=N\C(=O)C1C(C)(C)C1(C)C
Response: 75

Request: What value of Population Apoptotic (%) on Fibroblast does C=CCN1C[C@H](C(=O)N(CCCN(C)C)C(=O)NCC)C[C@@H]2c3cccc4[nH]cc(c34)C[C@H]21 have?
Response: 72

Request: Test system Fibroblast; read-out Population Apoptotic (%); what value for CCC(=O)OCC(=O)[C@@]1(OC(=O)CC)[C@@H](C)C[C@H]2[C@@H]3CCC4=CC(=O)C=C[C@]4(C)[C@@]3(Cl)[C@@H](O)C[C@@]21C [BECLOMETHASONE DIPROPIONATE] ?
Response: 67

Request: Lab request: please report Population Apoptotic (%) under test system Fibroblast for C[C@H](NC(=O)CNC(=O)c1cccc(Cl)c1)c1ccccc1
Response: 68

Request: # value lookup — system Fibroblast, readout Population Apoptotic (%), item COc1cc2nc(N3CCN(C(=O)COc4c(OC)cccc4C(C)C)CC3)nc(N)c2cc1OC.Cl.Cl
Response: 45
